Target: UniProtKB P04054
Sequence (P04054 whole entry): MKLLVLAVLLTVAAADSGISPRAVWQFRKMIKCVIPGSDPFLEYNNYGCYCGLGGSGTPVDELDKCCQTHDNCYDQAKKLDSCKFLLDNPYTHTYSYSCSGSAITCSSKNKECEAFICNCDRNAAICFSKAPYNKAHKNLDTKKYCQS
Format: functional
The source made the active and inactive calls.
MEASUREMENT_TYPE: IC50

Before answering, review these 3 worked examples.
MOLECULE	EXPERIMENTAL_TARGET	IC50
Cc1ccc(-c2nnc(SCc3ccccc3F)o2)cc1	UniProtKB P04054	7.21 µM (active)
Cc1ccccc1NC(=O)CN1C(=O)S/C(=C\c2ccc(-c3cc(C(=O)O)ccc3C)o2)C1=O	UniProtKB P04054	1.77 µM (active)
C=CC#CC[N+]1(CC#Cc2ccccc2)CCOCC1	UniProtKB P04054	11.8 µM (active)

Then this molecule:
Query: Reported IC50, molecule O=c1oc(-c2ccccc2)nc2sc3c(c12)CCC3 : ____
Reply: 1.95 µM (active)

###

Target: Heat shock factor protein 1 (Mus musculus)
Sequence (P38532 whole entry): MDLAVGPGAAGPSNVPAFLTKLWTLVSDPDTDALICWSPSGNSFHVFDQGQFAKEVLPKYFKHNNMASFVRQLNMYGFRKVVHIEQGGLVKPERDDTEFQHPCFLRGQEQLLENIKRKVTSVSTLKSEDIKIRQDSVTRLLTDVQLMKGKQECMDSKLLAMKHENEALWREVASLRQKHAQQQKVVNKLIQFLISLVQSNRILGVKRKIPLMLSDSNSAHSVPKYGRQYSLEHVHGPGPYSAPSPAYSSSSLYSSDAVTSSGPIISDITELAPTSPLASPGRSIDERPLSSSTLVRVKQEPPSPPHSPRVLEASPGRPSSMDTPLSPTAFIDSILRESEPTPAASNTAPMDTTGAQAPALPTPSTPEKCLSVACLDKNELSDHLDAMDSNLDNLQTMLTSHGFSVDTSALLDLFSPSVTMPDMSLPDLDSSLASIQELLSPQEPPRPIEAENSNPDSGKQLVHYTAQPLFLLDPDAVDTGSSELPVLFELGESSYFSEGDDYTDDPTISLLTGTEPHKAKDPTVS
Test: enhancement of HSF1-driven luciferase signal – cell-based, NIH3T3, luminescence, dose retest, confirmation (AID 435004);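 note: stress induced by proteasome inhibitor MG132 added 30 min after compound; luciferase reporter driven by HSF1 response element in NIH3T3 cells; actives raise luminescence as potentiators of the MG132 stress response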
Format: functional
Activity calls are given as the source filed them.
Please answer using one outcome listed in active, inactive

COMPOUND	EXPERIMENTAL_TARGET	GROUP
Cc1ccc(CNC(=O)[C@H](C)N2C(=O)N3CCc4c([nH]c5ccccc45)[C@@]3(C)C2=O)cc1	Heat shock factor protein 1 (Mus musculus)	inactive

Query: Recorded test call requested for O=c1c2ccccc2sc2nc(C3CCCCC3)n(Cc3ccco3)c(=O)c12
Reply: active

Query: # lookup: test call for C=CC[C@@H]1Cc2c(Br)ccc(Br)c2[C@@H](CC=C)N1
Reply: inactive

Query: Tell me the recorded outcome of this test for CCS(=O)(=O)c1ncc(Cl)c(C(=O)Nc2ccccc2OC)n1 .
Reply: active

Query: # lookup: test call for Cc1cn(Cc2ccccc2Cn2cc(C)c(=O)[nH]c2=O)c(=O)[nH]c1=O
Reply: inactive

Query: Name the outcome recorded for CCCCCCCCCCCC(=O)c1c(O)cccc1O in the assay.
Reply: active

Query: Check the results log: what was the call for CC(=O)/N=c1\sccn1CC(=O)c1ccc([N+](=O)[O-])cc1 ?
Reply: inactive

Query: Given COC(=O)c1cc(S(=O)(=O)C(C)C)c([S+](C)[O-])s1 (centres undefined) , state the outcome it received in this test.
Reply: active

Query: Please share the test call associated with Cc1ccc2[nH]c(NCc3ccccc3)nc2c1 .
Reply: inactive

###

Target: Replicative DNA helicase DnaB (Mycobacterium tuberculosis)
Sequence (P9WMR3 1-399, added parts left off): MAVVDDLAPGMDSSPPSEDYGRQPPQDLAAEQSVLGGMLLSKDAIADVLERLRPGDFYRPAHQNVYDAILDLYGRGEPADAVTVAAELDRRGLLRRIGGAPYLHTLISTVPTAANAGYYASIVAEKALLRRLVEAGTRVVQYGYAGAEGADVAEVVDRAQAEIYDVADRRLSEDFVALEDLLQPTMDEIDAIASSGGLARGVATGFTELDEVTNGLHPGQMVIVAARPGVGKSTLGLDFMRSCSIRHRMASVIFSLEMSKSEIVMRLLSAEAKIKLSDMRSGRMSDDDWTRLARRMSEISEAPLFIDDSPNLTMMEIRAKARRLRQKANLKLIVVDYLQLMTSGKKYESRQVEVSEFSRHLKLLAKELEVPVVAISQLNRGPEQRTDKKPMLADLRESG
Experiment: DnaB intein splicing inhibitors, dose response, biochemical, cell-free fluorescence (AID 449749)
Format: functional
Calls of active or inactive are those of the source.
Choose the fitting class; nothing outside true (active), false (inactive) is accepted.

Query: Record request — test call for O=[N+]([O-])c1c(Nc2ccccn2)cc(Cl)c2nonc12
Reply: true

Query: GET /call?item= Cc1ccc(S(=O)(=O)/N=C2\C=C(Nc3cccc(C(=O)O)c3)C(=O)c3ccccc32)cc1 returns the recorded outcome of this test.
Reply: true

Query: What did the test return for CC(=O)OCCCNc1cc(SCc2ccco2)c2nonc2c1[N+](=O)[O-] ?
Reply: true

Query: Outcome logged for CC1(C)N=C(SCC(=O)Nc2ccc(Cl)cc2)C(c2ccc(Cl)cc2)=N1 in this assay:
Reply: true

Query: Give the logged outcome of this assay for the following compound: Cc1nc2ccccc2c2c1C(=O)N(C(C)C)C2=O
Reply: true

Query: Kindly provide the recorded test outcome for the following compound: COc1ccc(NC(=O)Cn2ncc(Cl)c(Cl)c2=O)cc1S(=O)(=O)N1CCOCC1
Reply: true

Query: Field: outcome | Entry: Cc1nn(C(=O)c2cccnc2)c(C)c1Sc1ccc(Br)cc1
Reply: true

Query: What was the test verdict on CC(C)(C)C(=O)Nc1ccc(N=Nc2ccccc2)cc1 ?
Reply: true

Query: Outcome logged for O=C(c1ccccc1)c1c[nH]c(C(=O)C(Cl)(Cl)Cl)c1 in this assay:
Reply: true

Query: Hi, do you know how Cc1nn(Cc2ccccc2)c2c1C(c1ccco1)C(C#N)=C(N)O2 (stereo unspecified) came out in this test?
Reply: false

Query: In this assay, the call recorded for Cc1ccc(C(c2cc(Cl)c3cccnc3c2O)N2CCN(C)CC2)cc1 (stereo unspecified) was what?
Reply: false

Reference source: ChEMBL document CHEMBL1201862
